measurement target: Estrogen receptor (Homo sapiens)
experiment notes: qHTS assay to identify small molecule agonists of the estrogen receptor alpha (ER-alpha) signaling pathway (AID 743075);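 also: HEK293 GripTite cells with ER-alpha and UAS-driven beta-lactamase reporter; % is scaled to controls: 0 for no effect and ±100 for the full control effect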
conditions used: HEK293 ER-alpha-UAS-bla, beta-lactamase FRET ratio, 18 h; series mostly up to 70.1 µM
Results filed as inconclusive are left out. Activity calls are given as the source filed them. Calls follow the shape of the full dose curve.

>  <compound>
O=C1CCO1

>  <outcome>
inactive

$$$$
>  <compound>
CC(N)Cc1ccc(O)cc1 (stereo not drawn)

>  <outcome>
inactive

$$$$
>  <compound>
CNC(C)C(O)c1ccc(O)cc1 (stereo not drawn)

>  <outcome>
inactive

$$$$

---

Recorded activity change, negative = inhibition values for a group of compounds are listed next.
measurement target: Acetylcholinesterase (Homo sapiens) (UniProt P22303)
Sequence (P22303 whole entry, looked up): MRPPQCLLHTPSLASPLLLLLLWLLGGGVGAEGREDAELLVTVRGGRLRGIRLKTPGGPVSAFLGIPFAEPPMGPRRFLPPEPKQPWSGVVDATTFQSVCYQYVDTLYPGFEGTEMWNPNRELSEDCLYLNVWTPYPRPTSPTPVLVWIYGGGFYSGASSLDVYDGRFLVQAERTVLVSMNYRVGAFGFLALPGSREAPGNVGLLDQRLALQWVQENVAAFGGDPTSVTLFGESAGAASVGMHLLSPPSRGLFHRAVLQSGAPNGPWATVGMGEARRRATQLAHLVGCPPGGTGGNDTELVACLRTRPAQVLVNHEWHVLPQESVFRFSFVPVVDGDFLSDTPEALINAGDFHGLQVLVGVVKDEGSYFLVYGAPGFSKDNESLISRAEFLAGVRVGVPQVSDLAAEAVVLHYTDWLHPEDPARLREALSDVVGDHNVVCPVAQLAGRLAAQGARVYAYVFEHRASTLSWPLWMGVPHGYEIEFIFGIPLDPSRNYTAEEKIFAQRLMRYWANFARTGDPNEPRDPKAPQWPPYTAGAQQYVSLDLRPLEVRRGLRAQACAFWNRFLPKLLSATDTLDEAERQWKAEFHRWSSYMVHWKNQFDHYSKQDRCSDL
experiment notes: Acetylcholinesterase (AChE) small molecule antagonists: enzyme-based qHTS assay with human liver microsomes (AID 1347399); also: % is scaled to controls: 0 for no effect and ±100 for the full control effect; nearly all actives have a fitted effect of over 60% in size
conditions used: series mostly up to 115 µM
The source made the active and inactive calls. Calls follow the shape of the full dose curve.

>  <sample smiles>
[O-][n+]1ccccc1SSc1cccc[n+]1[O-]

>  <activity change, negative = inhibition>
-15.2% [at 23.6 µM] (inactive)

$$$$
>  <sample smiles>
NC(N)=NCCN1CCCCCCC1

>  <activity change, negative = inhibition>
-0.084% [at 0.435 µM] (inactive)

$$$$
>  <sample smiles>
O=C(O)CNCC(=O)O

>  <activity change, negative = inhibition>
-0.995% [at 10.5 µM] (inactive)

$$$$
>  <sample smiles>
CC1=CC(=C(c2ccc(N)cc2)c2ccc(N)cc2)C=CC1=N

>  <activity change, negative = inhibition>
0.485% [at 10.5 µM] (inactive)

$$$$

Values were extracted from PubChem BioAssay (Tox21).
